Tested on: UACC-62 melanoma
Test: NCI-60 one-dose screen, 48 h (100 = growth as untreated, 0 = no growth, -100 = all killed)
Conditions: 10 µM
Compounds without any hit were thinned out: in the full panel of roughly 83,000, 20% have a hit.
So I've got a bunch of molecules here, and I need their growth values.
Reply with just the number (in %).

Task item: Entry COc1cc(C2CC(c3ccc(Nc4ccnc5cc(Cl)ccc45)cc3)=NN2c2ccc(Cl)cc2)cc(OC)c1OC (stereo not given) has what growth?
Reply: 22.2

Task item: Now try `Cc1nc2oc3ccccc3c(=O)c2cc1C(=O)NCc1ccccc1` .
Reply: 31.1

Task item: Now try `c1ccc2c(-c3nc(N4CCOCC4)c4c5c(sc4n3)CCCCCC5)cccc2c1` .
Reply: 96.6

Task item: Now try CCCCCCCCCCCCCCCC(=O)OC1[C@@H](OC(=O)CCCCCCCCCCCCCCC)[C@@H](C(=O)N[C@@H](CCCCN)C(=O)OC)O[C@H]1n1cnc2c(=O)[nH]c(NC(=O)C(C)C)nc21 (stereo not given in full) .
Reply: 111

Task item: Now try O=C(N/N=C/c1ccccc1)C(Oc1ccccc1)c1ccccc1 (stereo not given) .
Reply: 74.9

Task item: Now try `CCC(=O)N1C/C(=C/c2ccc(OC)cc2)C(=O)/C(=C/c2ccc(OC)cc2)C1` .
Reply: 27.3

Task item: Now try `N#CCCN1C/C(=C/c2ccccc2)C(=O)/C(=C/c2ccccc2)C1` .
Reply: 0.851

Task item: Now try `CN(C)c1ccc(N=C2C=CC(=O)c3ccccc32)cc1` .
Reply: 22.5

Task item: Now try `COc1ccc2c(c1)nc(N)c1c3cccnc3cn21` .
Reply: 16

Task item: Now try `CC(=O)/C(=C/c1ccccc1)C(=O)CC(C)C` .
Reply: 92.4

* * *

So I've got a bunch of compounds here, and I need their growth values.
Test system: HOP-62 NSCLC
Test: NCI-60 one-dose screen, 48 h (100 = growth as untreated, 0 = no growth, -100 = all killed)
Settings: 10 µM
Method: Growth inhibition of the HOP-62 human Non-Small Cell Lung tumor cell line is measured as a screen for anti-cancer activity. Cells are grown in 96 well plates and exposed to the test compound for 48 hours. Compounds are tested at a single concentration, which is 10^-5 M for most compounds. The reported endpoint is percent growth (GI% or GIPRCNT), where numbers from 0 - 100% represent growth inhibition, and numbers from -100% - 0 represent cell death. […]
The panel holds about 83,000 compounds, 20% with a hit somewhere; the sample as a whole holds those more often.
Reply with just the number (in %).

Task item: Entry `CCC(=O)N1C/C(=C/c2ccc(Cl)cc2)C(=O)/C(=C/c2ccc(Cl)cc2)C1` has what growth?
Reply: -53

Task item: Now try `NC(=S)N=Nc1c(O)c2ccccc2c2ccccc12` .
Reply: 29.8

Task item: Now try CC(=O)C1CCC2C3CC(F)C4=CC(=O)CCC4(C)C3C(O)CC12C (stereo not given) .
Reply: 93

Task item: Now try CCOC(=O)C1CCc2c(ccc3ccccc23)N1CCC#N (stereo not given) .
Reply: 101

Task item: Now try `N#Cc1c(C#N)c(SSc2c(C#N)c(C#N)c(N)n2-c2ccccc2)n(-c2ccccc2)c1N` .
Reply: 109
